Experiment: NCI Yeast Anticancer Drug Screen. Data for the bub3 strain (AID 167)
Details: S. cerevisiae bub3 mutant strain, at 50.0 µM, active compounds read high
Description: Growth inhibition of yeast strains with defined genetic alterations is measured as a screen for potential anti-cancer activity. Selected strains with alterations in DNA damage repair or cell cycle control were exposed to compounds and growth inhibition was measured relative to vehicle treated controls. The strain used in this assay is bub3
The panel holds about 79,000 compounds, 15% with a hit somewhere; the sample as a whole holds those more often.

compound	growth inhibition / %
CC(NC(=O)OCc1ccccc1)C(=O)NC(C(=O)O)C(C)C (stereo unspecified)	34.9
CC(=O)OCCn1c2nc(=O)[nH]c(=O)c-2nc2cc(C)c(C)cc21	8
CC(=O)N(C)c1ccc2c(c1)Cc1ccccc1-2	58.3
Cc1cc(-c2ccc(N=Nc3cc(S(=O)(=O)O)c4ccccc4c3N)c(C)c2)ccc1N=Nc1cc(S(=O)(=O)O)c2ccccc2c1N	73.7
O=C1C(Cl)=C(Cl)C(=C2C(Cl)=C(Cl)C(=O)C(Cl)=C2Cl)C(Cl)=C1Cl	99.5
CCCCCC(C)NCC(O)Cc1ccc(OCCCC)cc1 (stereo unspecified)	99.5
O=C1NC(O)c2cccc(Cl)c2O1 (stereo unspecified)	94.8
O=NNc1ncccc1OCc1ccccc1	-2.9
CCCCCCCCCCCc1nnc(N)o1	95.1
C/C=C(\C)C(=O)OC1C2C(C)=CC(=O)C(O)C2(C)C2C3(O)OCC24C1OC(=O)C(O)C4C(C)C3O (stereo unspecified)	75.8
CN/N=C(\C)C(CN1CCCCC1)C(C1=C(O)c2ccccc2OC1)c1ccccc1 (stereo unspecified)	67.7
